meta.source: patent US20240352105A1

Recorded Tonset, one value per entry.
# experiment_notes: Thermostability (Tm, Tonset, Tagg) by Nanotemper DSF
# Assay type: physicochemical
# Design: key: temperatures in °C
# assay_conditions: Replicate 1
Lab note: jot the number down without any unit.

Past entries and their recorded results:
- molecule: "SDAB22110-4-3-H02: anti-Fel d1 VHH clone, SEQ ID NO: 57 (protein) VHH: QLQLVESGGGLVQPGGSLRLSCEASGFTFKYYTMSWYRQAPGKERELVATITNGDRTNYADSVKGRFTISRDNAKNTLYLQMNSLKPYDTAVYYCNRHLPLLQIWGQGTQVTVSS"
  Tonset: 47.33
- molecule: "SDAB22110-3-2-H08: anti-Fel d1 VHH clone, SEQ ID NO: 53 (protein) VHH: QVQLVESGGGLVQPGGSLRLSCAASGFTFSRKGMSWYRQVPGKEREWVARIYSTGEKTDYADSVKGRFTISRDNAKNMVYLDMNSLKPEDTAVYYCKAWGYEYWNQGTQVTVSS"
  Tonset: 37.03

Here is the next item to consider.
Documented Tonset of SDAB22110-4-3-B02: anti-Fel d1 VHH clone, SEQ ID NO: 54 (protein) VHH: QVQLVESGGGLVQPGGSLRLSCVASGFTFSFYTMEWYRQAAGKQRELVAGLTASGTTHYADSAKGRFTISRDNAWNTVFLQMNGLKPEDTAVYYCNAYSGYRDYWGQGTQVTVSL : 33.78
